src = ChEMBL document CHEMBL1149831

Reported IC50 values for a set of compounds
Test system: U-118-MG
ASSAY COMMENT: Cytotoxicity against human U118Mg cells after 72 hrs by MTT assay
Format: functional, cell-based
Unit µM implied. Number only.

Sample records with IC50:
// query IC50 value for entry O=c1n(-c2ccc(Cl)cc2)nc(-c2nc3ccccc3[nH]2)c2nc3ccccc3n12
247

Continue with CCOC(=O)n1c(-c2nn(-c3ccc(Cl)cc3)c(=O)n3c2nc2ccccc23)nc2ccccc21
12.4

Continue with O=c1n(-c2ccc([N+](=O)[O-])cc2)nc(-c2nc3ccccc3[nH]2)c2nc3ccccc3n12
250

Continue with c1ccc(NN=C(c2nc3ccccc3[nH]2)c2nc3ccccc3[nH]2)cc1
160

Next:
// query IC50 value for entry Clc1ccc(NN=C(c2nc3ccccc3[nH]2)c2nc3ccccc3[nH]2)cc1
250

====

Tested on: K562
ASSAY COMMENT: Cytotoxicity against human K562-Tax cells after 72 hrs by MTT assay
Type: functional, cell-based
MEASUREMENT CONTEXT: K562, 72 h
MEASURED ATTRIBUTE: pIC50
pIC50 here is simply -log10 of the concentration when that concentration is written in mol/L.

// query pIC50 value for entry O=[N+]([O-])c1ccc(NN=C(c2nc3ccccc3[nH]2)c2nc3ccccc3[nH]2)cc1
4.00

Continue with Cc1ccc(NN=C(c2nc3ccccc3[nH]2)c2nc3ccccc3[nH]2)cc1
3.62

Continue with COc1ccc(NN=C(c2nc3ccccc3[nH]2)c2nc3ccccc3[nH]2)cc1
3.63

Continue with O=c1n(-c2ccc(Cl)cc2)nc(-c2nc3ccccc3[nH]2)c2nc3ccccc3n12
3.78

With those in mind, consider the next compound.
// query pIC50 value for entry c1ccc(NN=C(c2nc3ccccc3[nH]2)c2nc3ccccc3[nH]2)cc1
3.84

====

Reported pIC50 values for a set of compounds
Tested on: CCRF-CEM
ASSAY COMMENT: Cytotoxicity against human CEM cells after 72 hrs by MTT assay
Type: functional, cell-based
pIC50 here is simply -log10 of the concentration when that concentration is written in mol/L.

Sample records with pIC50:
// query pIC50 value for entry Cc1ccc(-n2nc(-c3nc4ccccc4[nH]3)c3nc4ccccc4n3c2=O)cc1
4.73

Continue with O=c1n(-c2ccc([N+](=O)[O-])cc2)nc(-c2nc3ccccc3[nH]2)c2nc3ccccc3n12
3.99

Continue with O=[N+]([O-])c1ccc(NN=C(c2nc3ccccc3[nH]2)c2nc3ccccc3[nH]2)cc1
4.23

Next:
// query pIC50 value for entry CCOC(=O)n1c(-c2nn(-c3ccc(Cl)cc3)c(=O)n3c2nc2ccccc23)nc2ccccc21
4.50

Continue with COc1ccc(-n2nc(-c3nc4ccccc4[nH]3)c3nc4ccccc4n3c2=O)cc1
5.46

Continue with COc1ccc(NN=C(c2nc3ccccc3[nH]2)c2nc3ccccc3[nH]2)cc1
4.96

====

Tested on: CCRF-CEM
ASSAY COMMENT: Cytotoxicity against human CEM cells after 72 hrs by MTT assay
Assay type: functional, cell-based
MEASURED ATTRIBUTE: IC50 (µM)
Unit µM implied. Number only.

// query IC50 value for entry CCOC(=O)n1c(-c2nn(-c3ccc([N+](=O)[O-])cc3)c(=O)n3c2nc2ccccc23)nc2ccccc21
155

Continue with CCOC(=O)n1c(-c2nn(-c3ccc(OC)cc3)c(=O)n3c2nc2ccccc23)nc2ccccc21
31.8

Continue with Clc1ccc(NN=C(c2nc3ccccc3[nH]2)c2nc3ccccc3[nH]2)cc1
42.5

Continue with O=c1n(-c2ccc(Cl)cc2)nc(-c2nc3ccccc3[nH]2)c2nc3ccccc3n12
83.6

Continue with Cc1ccc(NN=C(c2nc3ccccc3[nH]2)c2nc3ccccc3[nH]2)cc1
26.5

Next:
// query IC50 value for entry CCOC(=O)n1c(-c2nn(-c3ccccc3)c(=O)n3c2nc2ccccc23)nc2ccccc21
58.6

Continue with c1ccc(NN=C(c2nc3ccccc3[nH]2)c2nc3ccccc3[nH]2)cc1
13

Continue with CCOC(=O)n1c(-c2nn(-c3ccc(C)cc3)c(=O)n3c2nc2ccccc23)nc2ccccc21
25.5

Continue with O=c1n(-c2ccccc2)nc(-c2nc3ccccc3[nH]2)c2nc3ccccc3n12
12.2
